meta.source: patent US10336739B2

Molecular target: human APJ receptor (Homo sapiens (Human), UniProt P35414)
Sequence (P35414 whole entry): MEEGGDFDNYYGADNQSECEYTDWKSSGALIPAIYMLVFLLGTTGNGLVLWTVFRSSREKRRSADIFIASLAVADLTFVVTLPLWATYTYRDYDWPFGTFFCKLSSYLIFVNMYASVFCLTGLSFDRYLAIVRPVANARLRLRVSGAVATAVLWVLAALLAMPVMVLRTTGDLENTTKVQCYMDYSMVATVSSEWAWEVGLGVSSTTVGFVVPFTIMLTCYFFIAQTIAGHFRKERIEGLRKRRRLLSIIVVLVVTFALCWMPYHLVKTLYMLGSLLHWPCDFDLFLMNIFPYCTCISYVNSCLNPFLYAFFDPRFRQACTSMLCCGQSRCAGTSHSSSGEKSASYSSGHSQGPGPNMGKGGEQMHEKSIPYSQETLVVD
Test: Intracellular cAMP accumulation assay (APJ hcAMP, HTRF)
Type: cell-based
Conditions: hAPJ cAMP EC50 (nM) Potency range, HEK293 cells stably expressing human APJ receptor; inhibition of forskolin-mediated cAMP production

{"columns": ["Smiles entry", "EC50"],
 "data": [
  ["CCCCc1nc(O)c(-c2nnc(Cc3ncc(Cl)cc3F)o2)c(O)c1-c1c(OC)cccc1OC", "10 to 100 nM"]
]}

----------
Listing of recorded EC50 by entry.
Molecular target: human APJ receptor (Homo sapiens (Human), UniProt P35414)
Experiment: Intracellular cAMP accumulation assay (APJ hcAMP, HTRF)
Assay type: cell-based
Settings: HEK293 cells stably expressing human APJ receptor; inhibition of forskolin-mediated cAMP production; read-out: hAPJ cAMP EC50 Potency range
Property name: EC50

{"columns": ["Smiles entry", "Assay result"],
 "data": [
  ["CCCCc1nc(O)c(-c2nnc(CN3CCCCC3)o2)c(O)c1-c1c(OC)cccc1OC", "10 to 100 nM"],
  ["CCOCc1nc(O)c(-c2nnc(Cc3ccc(F)nc3)o2)c(O)c1-c1c(OC)cccc1OC", "0.01 to 10 nM"],
  ["CCCCc1nc(O)c(-c2nnc(C(C)(C)c3ccc(Cl)cc3)o2)c(O)c1-c1c(OC)cccc1OC", "0.01 to 10 nM"],
  ["CCCCc1nc(O)c(-c2nnc(-c3ccccc3Cl)o2)c(O)c1-c1c(OC)cccc1OC", "100 to 300 nM"],
  ["CCOCc1nc(O)c(-c2nnc(Cn3ccccc3=O)o2)c(O)c1-c1c(OC)cccc1OC", "0.01 to 10 nM"],
  ["CCCCc1nc(O)c(-c2nnc(CC(=O)N3CC(F)C3)o2)c(O)c1-c1c(OC)cccc1OC", "0.01 to 10 nM"],
  ["CCCCc1nc(O)c(-c2nnc(CNC(=O)C(F)(F)F)o2)c(O)c1-c1c(OC)cccc1OC", "10 to 100 nM"],
  ["CCCCc1nc(O)c(-c2nnc(Cc3ccc(F)cc3)o2)c(O)c1-c1c(OC)cccc1OC", "0.01 to 10 nM"]
]}
